Listed below: EC50 values for each entry.
study target: T1, recombinant human IL-17A-mFc protein (human, UniProt Q16552 24-155, Biotinylated before the blocking assays of Examples 9 and 12 (sites not given); disulfide-linked dimer through IL-17A and the Fc.)
T1 construct: also called recombinant fusion protein IL-17A-mFc
T1 sequence: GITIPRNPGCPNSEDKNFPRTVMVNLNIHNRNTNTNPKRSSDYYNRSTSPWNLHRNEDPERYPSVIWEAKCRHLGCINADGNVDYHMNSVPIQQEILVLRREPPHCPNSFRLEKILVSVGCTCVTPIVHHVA
assay notes: ELISA, human IL-17A-mFc coated (method of Example 8)

- binder: "humanized antibody hu60 (antibody, human IgG4 S228P, kappa, V domains shown) VH: QVQLQESGPGLVKPSETLSLTCTVTGYSISSDYAWSWIRQPPGKGLEWIGFISYSGPTSYNPSLKSRVTISRDTSKNQFSLKLSSVTAADTAVYYCARGGDGDSFDYWGQGTLVTVSS VL: DVVMTQSPLSLPVTLGQPASISCRSSQSIVHSNGNTYLDWYLQKPGQSPKLLIYKVSNRFSGVPDRFSGSGSGTSFTLKISRVEAEDLGVYYCFQGSHFPTFGQGTKLEIKR"
  EC50 (ng/mL): 5.78
- binder: "humanized antibody hu31 (antibody, human IgG4 S228P, kappa, V domains shown, Humanized from ch1) VH: QVQLVQSGAEVKKPGASVKVSCKASGYIFTNYGMNWMRQAPGQGLEWMGWINDHTGEPTYADKFQGRVTFTLDTSISTAYMELSRLRSDDTAVYYCANYGFGYFDYWGQGTLVTVSS VL: DVVMTQSPLSLPVTLGQPASISCRSSQSLVHSNGNSYLHWYLQKPGQSPQLLIYKVSNRFSGVPDRFSGSGSGTDFTLKISRVEAEDVGVYYCSQSTHVPYTFGQGTKLEIKR"
  EC50 (ng/mL): 8.13
- binder: "humanized antibody hu59 (antibody, human IgG4 S228P, kappa, V domains shown) VH: QVQLQESGPGLVKPSETLSLTCTVTGYSISSDYAWSWIRQPPGKGLEWIGFISYSGPTSYNPSLKSRVTISRDTSKNQFSLKLSSVTAADTAVYYCARGGDGDSFDYWGQGTLVTVSS VL: DVVMTQSPLSLPVTLGQPASISCRSSQSIVHSNGNTYLDWYLQKPGKSPKLLIYKVSNRFSGVPDRFSGSGSGTDFTLKISRVEAEDLGVYYCFQGSHFPTFGQGTKLEIKR"
  EC50 (ng/mL): 6.1
